# Type: in vivo, human
# assay_context: human, plasma, oral, C24_d5, Mean, 125 mg group: 375 mg on day 1 and 125 mg on days 2–5; 24 h postdose on day 5
property_measured: concentration at 24 h (ng/mL)
All answers are understood in ng/mL, so give the number only.

Q) Which concentration at 24 h reading was recorded for the compound Cn1cnc(Cn2c(=O)[nH]/c(=N\c3cc4cn(C)nc4cc3Cl)n(Cc3cc(F)c(F)cc3F)c2=O)n1 ?
A) 19500
